Data origin: patent US20090169562A1

Please go through the items and note down their OD492 nm.
System Name: T1, bovine serum albumin (BSA) (bovine, UniProt P02769 25-607)
T1 construct: Control antigen coated at 1% in PBS (pH 7.4); also called negative control antigen
T1 sequence (P02769 25-607 limits assumed): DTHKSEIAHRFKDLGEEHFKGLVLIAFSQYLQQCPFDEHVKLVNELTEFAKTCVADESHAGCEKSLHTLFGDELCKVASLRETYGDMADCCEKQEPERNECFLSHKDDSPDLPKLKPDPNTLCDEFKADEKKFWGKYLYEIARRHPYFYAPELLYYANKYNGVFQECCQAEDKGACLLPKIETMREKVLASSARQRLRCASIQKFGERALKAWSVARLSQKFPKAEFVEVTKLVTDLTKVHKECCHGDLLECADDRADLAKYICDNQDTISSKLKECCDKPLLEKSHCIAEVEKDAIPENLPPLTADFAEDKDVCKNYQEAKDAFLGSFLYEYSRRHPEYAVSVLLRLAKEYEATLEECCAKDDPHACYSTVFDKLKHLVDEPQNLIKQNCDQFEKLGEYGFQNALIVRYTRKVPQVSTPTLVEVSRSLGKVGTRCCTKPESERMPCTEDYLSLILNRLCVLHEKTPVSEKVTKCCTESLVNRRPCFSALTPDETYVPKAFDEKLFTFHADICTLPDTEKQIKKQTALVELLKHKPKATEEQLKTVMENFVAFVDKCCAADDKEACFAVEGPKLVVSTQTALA
Assay: phage ELISA, 1% BSA coated, anti-M13-HRP detection
Please provide the amount together with its unit, number first.

Recorded OD492 nm, per entry:
Binder	Measured Endpoint	Measured Value
SC05-187 (scFv, Vl 138-246); also called single-chain phage antibody SC05-187) scFv: EVQLVQSGAEVKKPGESLKISCKGSGYSFTKYWIGWVRQMPGKGLEWMGIIYPGDSDTRYSPSFQGQVTISADKSISTAYLQWSSLKASDTAMYYCARGSGIATGNSFDSWGQGTLVTVSSGTGGSGGTGSGTGGSTQTVVTQEPSLTVSPGGTVTLTCASSTGAVTSGYYPNWFQQKPGQAPRALIYSTSKKHSWTPARFSGSLLGGRAALTLSGAQPEDEADYYCLLSYGGARVFGGGTKLTVL	OD492 nm	0.055 OD492 nm
SC06-415 (scFv, Vl 133-242); also called single-chain phage antibody SC06-415) scFv: EVQLVESGGGLVQPGRSLRLSCAASGFTFDDYAMHWVRQAPGKGLEWVSGISWNSGSIGYADSVKGRFTISRDNAKNSLYLQMNSLRAEDSAVYYCARGGQRFDFWGQGTLVTVSSGTGGSGGTGSGTGGSTQSALTQPPSASGSPGQSVTISCTGTSSDVGGYNYVSWYQQLPGKAPKLLIYDVNNRPSGVSNRFSGSKSGNTASLTISGLQAEDEAEYYCGSSVGSRLRIFGGGTKLTVL	OD492 nm	0.044 OD492 nm

Below: the item to evaluate.
Query block: Give OD492 nm for the following binder: SC06-089 (scFv, Vl 140-247); also called single-chain phage antibody SC06-089) scFv: EVQLVETGGGLVQPGGSLRLSCAASGFTFSSYSMNWVRQAPGKGLEWVSFISSSSSTIYYADSVKGRFTIARDNAKNSLYLQMNSLRDEDTAVYYCARPVGTGISLFHAFDIWGQGTMVTVSSGTGGSGGTGSGTGGSTQSVLTQPPSVSVAPGQTARITCGGNNIGSKYVHWYQQKPGQAPVLVVYDDSDRPSGIPERFSGSNSGNTATLTISRVEAGDEADFYCQVWDGSSDPVVFGGGTKLTVL
Result block: 0.042 OD492 nm
